The reported numbers originate from patent US8901307B2.

# SYSTEM_TESTED: human His-PIM1 [2-313] (Homo sapiens, UniProt P11309)
# Construct: purified human His-PIM1 [2-313] enzyme; His (N); purchased University of Dundee, Scotland; host or cells: baculovirus system
# Sequence (P11309 2-313): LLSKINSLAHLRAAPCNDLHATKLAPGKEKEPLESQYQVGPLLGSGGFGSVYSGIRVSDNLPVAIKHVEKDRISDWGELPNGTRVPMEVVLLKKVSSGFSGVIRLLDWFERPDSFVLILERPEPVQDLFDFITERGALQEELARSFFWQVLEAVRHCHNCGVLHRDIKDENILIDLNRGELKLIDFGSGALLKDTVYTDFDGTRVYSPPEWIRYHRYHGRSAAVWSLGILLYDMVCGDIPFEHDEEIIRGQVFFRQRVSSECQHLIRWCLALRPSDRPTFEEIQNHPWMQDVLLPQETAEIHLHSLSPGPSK
# ASSAY_METHOD_TEXT: PIM1 in-vitro mobility shift assay (Caliper LC3000, FL-Ahx-Bad phosphorylation)
# Type: biochemical
# STUDY_CONDITIONS: 1.5 h; percent inhibition at 0.3 uM compound; read-out: PIM1 % I at 0.3 uM
Where a name gives a salt, the structure may show the parent alone.
Quick reference: inhibition at 0.3 µM of the listed items.
MEASURED_PROPERTY: inhibition at 0.3 µM

{"COMPOUND": "O=C1NC(=O)/C(=C/c2ccccc2N2CCN(C(=O)C3CCNCC3)CC2)S1 [Example 91]", "MEASURED_PROPERTY": "inhibition at 0.3 µM", "OBSERVED_RESULT": "6.6%"}
{"COMPOUND": "O=C1NC(=O)/C(=C/c2cccc(Cl)c2N2CCC[C@@H](NCCCO)C2)S1 [Example 134]", "MEASURED_PROPERTY": "inhibition at 0.3 µM", "OBSERVED_RESULT": "> 95%"}
{"COMPOUND": "COCCOc1cccc(/C=C2\\SC(=O)NC2=O)c1N1CC[C@H](N)C1 [Example 122AB, hydrochloride]", "MEASURED_PROPERTY": "inhibition at 0.3 µM", "OBSERVED_RESULT": "> 95%"}
{"COMPOUND": "COc1cc(/C=C2\\SC(=O)NC2=O)c(N2CCC(N(C)C)C2)cc1OC (centres unmarked) [Example 52]", "MEASURED_PROPERTY": "inhibition at 0.3 µM", "OBSERVED_RESULT": "> 95%"}
{"COMPOUND": "CC(=O)Nc1ccc(N2CCC(N(C)C)C2)c(/C=C2\\SC(=O)NC2=O)c1 (centres unmarked) [Example 131B]", "MEASURED_PROPERTY": "inhibition at 0.3 µM", "OBSERVED_RESULT": "< 5%"}
{"COMPOUND": "CN(C)C1CCN(c2ccc(N)cc2/C=C2\\SC(=O)NC2=O)C1 (centres unmarked) [Example 151]", "MEASURED_PROPERTY": "inhibition at 0.3 µM", "OBSERVED_RESULT": "31.5%"}
{"COMPOUND": "CNC1CN(c2c(Cl)cccc2/C=C2\\SC(=O)NC2=O)CCC1C (centres unmarked) [Example 122U, hydrochloride]", "MEASURED_PROPERTY": "inhibition at 0.3 µM", "OBSERVED_RESULT": "> 95%"}
{"COMPOUND": "N[C@@H]1CCCN(c2c(/C=C3\\SC(=O)NC3=O)cccc2OCC(F)(F)F)C1 [Example 122Y, hydrochloride]", "MEASURED_PROPERTY": "inhibition at 0.3 µM", "OBSERVED_RESULT": "> 95%"}
